Target: Amine oxidase [flavin-containing] A (Homo sapiens)
Sequence (P21397 whole entry): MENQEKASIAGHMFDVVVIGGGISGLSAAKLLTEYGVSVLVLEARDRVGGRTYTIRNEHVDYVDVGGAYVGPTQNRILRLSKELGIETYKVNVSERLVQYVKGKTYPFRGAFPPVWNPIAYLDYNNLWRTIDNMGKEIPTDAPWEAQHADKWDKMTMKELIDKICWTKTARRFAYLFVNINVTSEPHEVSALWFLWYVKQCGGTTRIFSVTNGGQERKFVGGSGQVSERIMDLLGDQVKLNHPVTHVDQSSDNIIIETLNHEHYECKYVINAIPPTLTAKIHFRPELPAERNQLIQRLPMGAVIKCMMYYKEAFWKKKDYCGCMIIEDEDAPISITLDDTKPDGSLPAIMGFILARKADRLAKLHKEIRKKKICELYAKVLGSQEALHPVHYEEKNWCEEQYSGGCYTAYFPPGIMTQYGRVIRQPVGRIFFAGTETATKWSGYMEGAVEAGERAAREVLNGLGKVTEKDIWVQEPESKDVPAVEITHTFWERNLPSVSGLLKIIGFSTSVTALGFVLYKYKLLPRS
Quantity: pIC50
One number for each entry, as −log10 of the molar value.

Example results:
C#CCN(C)[C@H](C)Cc1ccc(OCCCCCNc2c3c(nc4ccccc24)CCCC3)cc1 : 5.90
C#CCN(C)[C@H](C)Cc1ccc(OCCNc2c3c(nc4ccccc24)CCCC3)cc1 : 5.31
C#CCN(C)[C@H](C)Cc1ccc(OCCCCCCCCNc2c3c(nc4cc(Cl)ccc24)CCCC3)cc1 : 6.72
C#CCN(C)[C@H](C)Cc1ccc(OCCCNc2c3c(nc4ccccc24)CCCC3)cc1 : 4.36
C#CCN(C)[C@H](C)Cc1ccc(OCCCCCCCCCCNc2c3c(nc4ccccc24)CCCC3)cc1 : 6.50

Dear colleague, could you send me pIC50 for each of the items below? Thanks.
1. C#CCN(C)[C@H](C)Cc1ccc(OCCCCCCCCNc2c3c(nc4ccccc24)CCCC3)cc1
2. C#CCN(C)[C@H](C)Cc1ccc(OCCCCCCNc2c3c(nc4ccccc24)CCCC3)cc1

Output:
1: 6.23; 2: 6.40

Dear colleague, could you send me pIC50 for each of the items below? Thanks.
1. C#CCN(C)[C@H](C)Cc1ccc(OCCCCNc2c3c(nc4ccccc24)CCCC3)cc1
2. C#CCN(C)[C@H](C)Cc1ccc(OCCCCCNc2c3c(nc4cc(Cl)ccc24)CCCC3)cc1
3. C#CCN(CCCCCCNc1c2c(nc3ccccc13)CCCC2)[C@H](C)Cc1ccc(OC)cc1
4. C#CCN(C)[C@H](C)Cc1ccc(OCCCNc2c3c(nc4cc(Cl)ccc24)CCCC3)cc1

Output:
1. 5.15
2. 5.54
3. 4.47
4. 5.04

Input: Data request, read-out pIC50, for "C#CCN(C)[C@H](C)Cc1ccc(OCCCCCCNc2c3c(nc4cc(Cl)ccc24)CCCC3)cc1"
Output: 6.28

* * *

Notes on pIC50 obtained with Amine oxidase [flavin-containing] B (Homo sapiens, UniProt P27338).
Sequence (P27338 whole entry): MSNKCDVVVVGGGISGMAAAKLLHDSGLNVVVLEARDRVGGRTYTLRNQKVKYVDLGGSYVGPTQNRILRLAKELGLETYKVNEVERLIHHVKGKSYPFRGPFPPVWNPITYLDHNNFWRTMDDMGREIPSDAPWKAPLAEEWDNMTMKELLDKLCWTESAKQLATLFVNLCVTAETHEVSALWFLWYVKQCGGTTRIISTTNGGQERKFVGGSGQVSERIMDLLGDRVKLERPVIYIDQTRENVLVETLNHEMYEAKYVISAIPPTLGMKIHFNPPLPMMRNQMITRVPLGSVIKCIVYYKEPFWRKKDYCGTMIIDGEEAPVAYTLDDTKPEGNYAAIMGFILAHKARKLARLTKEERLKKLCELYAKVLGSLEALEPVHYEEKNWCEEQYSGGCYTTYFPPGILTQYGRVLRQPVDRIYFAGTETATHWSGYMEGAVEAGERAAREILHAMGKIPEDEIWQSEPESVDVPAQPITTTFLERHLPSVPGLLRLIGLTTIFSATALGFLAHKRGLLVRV
Give bare numbers, as −log10 of the molar value.

C#CCN(C)[C@H](C)Cc1ccc(OCCCCCNc2c3c(nc4ccccc24)CCCC3)cc1 : 5.62

Dear colleague, could you send me pIC50 for each of the items below? Thanks.
1. C#CCN(C)[C@H](C)Cc1ccc(OCCCCCCNc2c3c(nc4cc(Cl)ccc24)CCCC3)cc1
2. C#CCN(CCCCCCNc1c2c(nc3ccccc13)CCCC2)[C@H](C)Cc1ccc(OC)cc1

Output:
[6.28, 4.74]
